Source of measurements: ChEMBL document CHEMBL1201862

# System: HOP-62
# measurement protocol: NCI tumour cell line growth inhibition, 48 h
The source made the active and inactive calls. Rule as the data show it: active = GI50 up to about 1.1 µM and inactive = higher.
measured attribute: GI50

// solved cases for GI50 follow
{"columns": ["molecule", "result"],
 "data": [
  ["CN(C)CCCNC(CC#N)CCC#N (stereo unspecified)", "> 10 µM (inactive)"],
  ["CC(C)C[C@@H](NC(=O)[C@@H](Cc1cccc2ccccc12)NC(=O)N1CCOCC1)B(O)O", "> 100 µM (inactive)"],
  ["O=C(c1ccccc1)n1c2ccc(Br)cc2c2nc3ccccc3nc21", "15.9 µM (inactive)"],
  ["O=C1OCC(C(=O)c2cccc(O)c2)C1=O (stereo unspecified)", "> 100 µM (inactive)"],
  ["Nc1ccn([C@H]2CO[C@@H](CO)[C@@H]2O)c(=O)n1", "> 100 µM (inactive)"]
]}

[in] Reported GI50 for O=C(/C=C/c1ccccc1)c1cc(CN2CCOCC2)c(O)c(CN2CCOCC2)c1 : what is it?
[out] 16.8 µM (inactive)

[in] Reported GI50 for COC(=O)C(CNC(=O)/C=C/c1ccc(OC(C)=O)c(OC(C)=O)c1)NC(=O)/C=C/c1ccc(OC(C)=O)c(OC(C)=O)c1 (stereo unspecified) : what is it?
[out] > 100 µM (inactive)

[in] Reported GI50 for NCCCCN(CCCN)C(=O)OCc1ccccc1 : what is it?
[out] > 100 µM (inactive)

[in] Reported GI50 for [O-][S@@+]1c2ccc3ccccc3c2N[C@@H]2[C@H]1[C@H]1C=C[C@@H]2C1 : what is it?
[out] 59.4 µM (inactive)

[in] Reported GI50 for O=C(/C=C(\N=P(c1ccccc1)(c1ccccc1)c1ccccc1)C(F)(F)C(F)(F)C(F)(F)C(F)(F)C(F)(F)C(F)(F)C(F)(F)F)c1ccccc1 : what is it?
[out] > 100 µM (inactive)

[in] Reported GI50 for C=C1C[C@@H](O)[C@@H](Br)C(C)(C)[C@]12CCC(C)(Cl)C(Br)C2 (stereo partly specified) : what is it?
[out] 19.1 µM (inactive)

[in] Reported GI50 for C=CC(C)CCC(C/C=C(\C)CCC=C(C)C)C(=C)CCCC(C)C (stereo unspecified) : what is it?
[out] > 100 µM (inactive)

[in] Reported GI50 for CCOC(=O)C(=O)C(=O)NN(C)C1=NCCN1 : what is it?
[out] > 100 µM (inactive)

[in] Reported GI50 for CC1=C2C(=O)NN=C2CCN1c1ccc(Br)cc1 : what is it?
[out] > 100 µM (inactive)

[in] Reported GI50 for CNc1ccc([S+]([O-])Nc2ccccc2)cc1 (stereo unspecified) : what is it?
[out] 58.3 µM (inactive)

[in] Reported GI50 for CCCCCCCCCOC(=O)c1cnc(Cl)cn1 : what is it?
[out] 24 µM (inactive)

[in] Reported GI50 for CC(C)(C)OC(=O)N1CC(COS(C)(=O)=O)c2ccc(O)cc21 (stereo unspecified) : what is it?
[out] 3.3 µM (inactive)

[in] Reported GI50 for COC(=O)c1c2c(cc3c1CC1(Cc4cc5c(c(C=O)c4C1)CCCC5)C3)CCCC2 (stereo unspecified) : what is it?
[out] 31.8 µM (inactive)

[in] Reported GI50 for O=C(n1[nH]c(=O)n(-c2ccc([N+](=O)[O-])cc2)c1=O)C(Cl)(Cl)Cl : what is it?
[out] > 75 µM (inactive)

[in] Reported GI50 for CN(C)/C(=N\C#N)NCc1ccccc1 : what is it?
[out] > 100 µM (inactive)

[in] Reported GI50 for COC1(OC)N=C(N)C2(C#N)/C(=N/N(C)C)CC(C)C12C#N (stereo unspecified) : what is it?
[out] > 100 µM (inactive)
